The reported measurements were obtained from patent US7763642B2.

- assaySystem: steroid sulphatase (STS) (Homo sapiens, UniProt P08842)
- Construct: Intact monolayers of JEG3 cells in triplicate 25 cm^2 tissue culture flasks; host or cells: JEG3 choriocarcinoma cells
- Sequence (P08842 22-583): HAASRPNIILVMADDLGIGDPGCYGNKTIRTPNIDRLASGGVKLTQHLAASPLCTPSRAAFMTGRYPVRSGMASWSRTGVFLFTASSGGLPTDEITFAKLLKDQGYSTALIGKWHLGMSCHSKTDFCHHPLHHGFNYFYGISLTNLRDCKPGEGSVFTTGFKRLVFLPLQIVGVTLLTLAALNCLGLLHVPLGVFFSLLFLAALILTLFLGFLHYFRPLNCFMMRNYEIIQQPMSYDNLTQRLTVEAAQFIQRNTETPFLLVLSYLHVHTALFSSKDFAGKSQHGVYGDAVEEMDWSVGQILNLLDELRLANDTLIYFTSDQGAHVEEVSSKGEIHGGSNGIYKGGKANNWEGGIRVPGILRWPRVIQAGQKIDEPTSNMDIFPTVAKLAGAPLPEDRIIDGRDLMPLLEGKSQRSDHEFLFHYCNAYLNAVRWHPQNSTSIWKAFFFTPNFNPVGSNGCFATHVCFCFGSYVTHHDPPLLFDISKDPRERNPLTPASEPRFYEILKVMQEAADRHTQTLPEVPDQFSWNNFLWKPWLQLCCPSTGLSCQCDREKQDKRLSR
- experimentNotes: Inhibition of steroid sulphatase activity in JEG3 cells (Protocol 1)
- Format: cell-based
- reportedConditions: JEG-3, read-out: % STS INHIBITION (10 μM)
Kind request: treat 20% as inclusive, so inhibition at 10 µM at 20% or higher is MET, anything lower is NOT MET.

See these solved cases before continuing.
- smiles: "COC(=O)c1cc(Cn2cncn2)cc(N(C)S(=O)(=O)c2ccc(OS(N)(=O)=O)cc2)c1"
  answerLabel: "NOT MET"
- smiles: "N#CC1(c2cc(CSc3ccc(OS(N)(=O)=O)cc3)cc(Cn3cncn3)c2)CCC1"
  answerLabel: "MET"
- smiles: "CC(C)(C#N)c1cc(/C=C/c2ccc(OS(N)(=O)=O)cc2)cc(Cn2cncn2)c1"
  answerLabel: "MET"
- smiles: "N#Cc1ccc(-c2ccc(OS(N)(=O)=O)cc2)cc1Cn1cncn1"
  answerLabel: "MET"
- smiles: "CC(C)(C#N)c1cc(COc2ccc(OS(N)(=O)=O)cc2)cc(Cn2cncn2)c1"
  answerLabel: "NOT MET"

Does inhibition at 10 µM meet or surpass 20% for N#CC1(c2cc(CSc3ccc(OS(N)(=O)=O)cc3)cc(Cn3cncn3)c2)CC1 ? NOT MET

Check the entry COC(=O)c1cc(Cn2cncn2)cc(NC(=O)c2ccc(OS(N)(=O)=O)cc2)c1 : does inhibition at 10 µM equal or exceed 20%? MET
